# STUDY TARGET: Peptidyl-prolyl cis-trans isomerase A (Homo sapiens, UniProt P62937)
# Sequence (P62937 whole entry): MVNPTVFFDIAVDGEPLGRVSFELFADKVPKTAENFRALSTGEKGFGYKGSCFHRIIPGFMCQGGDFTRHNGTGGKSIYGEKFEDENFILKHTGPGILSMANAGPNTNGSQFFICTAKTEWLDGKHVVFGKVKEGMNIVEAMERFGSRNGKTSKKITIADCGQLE
# ASSAY COMMENT: Immunosuppressive activity was measured by inhibition of the IL-2 production in Jurkat cells.
# Format: functional, cell-based
Grouping key: IC50. Bins: lo (below 100 nM), med (100 nM to below 900 nM), hi (900 nM or more)

Problem: Input C/C=C/C[C@@H](C)[C@@H](O)[C@H]1C(=O)N[C@@H](CC)C(=O)N(C)[C@H](SCCN2CCOCC2)C(=O)N(C)[C@@H](CC(C)C)C(=O)N[C@@H](C(C)C)C(=O)N(C)[C@@H](CC(C)C)C(=O)N[C@@H](C)C(=O)N[C@H](C)C(=O)N(C)[C@@H](CC(C)C)C(=O)N(C)[C@@H](CC(C)C)C(=O)N(C)[C@@H](C(C)C)C(=O)N1C ; output its category
Solution: med

Problem: Input C/C=C/C[C@@H](C)[C@@H](O)[C@H]1C(=O)N[C@@H](CC)C(=O)N(C)[C@H](SCCN(CC)CC)C(=O)N(C)[C@@H](CC(C)C)C(=O)N[C@@H](C(C)C)C(=O)N(C)[C@@H](CC(C)C)C(=O)N[C@@H](C)C(=O)N[C@H](C)C(=O)N(C)[C@@H](CC(C)C)C(=O)N(C)[C@@H](CC(C)C)C(=O)N(C)[C@@H](C(C)C)C(=O)N1C ; output its category
Solution: lo

Problem: Input C/C=C/C[C@@H](C)[C@@H](O)[C@H]1C(=O)N[C@@H](CC)C(=O)N(C)[C@H](SC)C(=O)N(C)[C@@H](CC(C)(C)O)C(=O)N[C@@H](C(C)C)C(=O)N(C)[C@@H](CC(C)C)C(=O)N[C@@H](C)C(=O)N[C@H](C)C(=O)N(C)[C@@H](CC(C)C)C(=O)N(C)[C@@H](CC(C)C)C(=O)N(C)[C@@H](C(C)C)C(=O)N1C ; output its category
Solution: med

Problem: Input C/C=C/C[C@@H](C)[C@@H](O)[C@H]1C(=O)N[C@@H](CC)C(=O)N(C)[C@H](SCCO)C(=O)N(C)[C@@H](CC(C)(C)O)C(=O)N[C@@H](C(C)C)C(=O)N(C)[C@@H](CC(C)C)C(=O)N[C@@H](C)C(=O)N[C@H](C)C(=O)N(C)[C@@H](CC(C)C)C(=O)N(C)[C@@H](CC(C)C)C(=O)N(C)[C@@H](C(C)C)C(=O)N1C ; output its category
Solution: hi

Problem: Input C/C=C/C[C@@H](C)[C@@H](O)[C@H]1C(=O)N[C@@H](CC)C(=O)N(C)[C@H](SCCO)C(=O)N(C)[C@@H](CC(C)C)C(=O)N[C@@H](C(C)C)C(=O)N(C)[C@@H](CC(C)C)C(=O)N[C@@H](C)C(=O)N[C@H](C)C(=O)N(C)[C@@H](CC(C)C)C(=O)N(C)[C@@H](CC(C)C)C(=O)N(C)[C@@H](C(C)C)C(=O)N1C ; output its category
Solution: lo

Problem: Input C/C=C/C[C@@H](C)[C@@H](O)[C@H]1C(=O)N[C@@H](CC)C(=O)N(C)[C@H](SCCN(C)C(C)(C)C)C(=O)N(C)[C@@H](CC(C)C)C(=O)N[C@@H](C(C)C)C(=O)N(C)[C@@H](CC(C)C)C(=O)N[C@@H](C)C(=O)N[C@H](C)C(=O)N(C)[C@@H](CC(C)C)C(=O)N(C)[C@@H](CC(C)C)C(=O)N(C)[C@@H](C(C)C)C(=O)N1C ; output its category
Solution: med

Problem: Input C/C=C/C[C@@H](C)[C@@H](O)[C@H]1C(=O)N[C@@H](CC)C(=O)N(C)[C@H](SCCN(C)C(C)C)C(=O)N(C)[C@@H](CC(C)C)C(=O)N[C@@H](C(C)C)C(=O)N(C)[C@@H](CC(C)C)C(=O)N[C@@H](C)C(=O)N[C@H](C)C(=O)N(C)[C@@H](CC(C)C)C(=O)N(C)[C@@H](CC(C)C)C(=O)N(C)[C@@H](C(C)C)C(=O)N1C ; output its category
Solution: lo

Problem: Input C/C=C/C[C@@H](C)[C@@H](O)[C@H]1C(=O)N[C@@H](CC)C(=O)N(C)[C@H](SCCN(CC)CC)C(=O)N(C)[C@@H](CC(C)(C)O)C(=O)N[C@@H](C(C)C)C(=O)N(C)[C@@H](CC(C)C)C(=O)N[C@@H](C)C(=O)N[C@H](C)C(=O)N(C)[C@@H](CC(C)C)C(=O)N(C)[C@@H](CC(C)C)C(=O)N(C)[C@@H](C(C)C)C(=O)N1C ; output its category
Solution: hi

Problem: Input C/C=C/C[C@@H](C)[C@@H](O)[C@H]1C(=O)N[C@@H](CC)C(=O)N(C)CC(=O)N(C)[C@@H](C[C@@H](C)CC)C(=O)N[C@@H](C(C)C)C(=O)N(C)[C@@H](CC(C)C)C(=O)N[C@@H](C)C(=O)N[C@H](C)C(=O)N(C)[C@@H](CC(C)C)C(=O)N(C)[C@@H](CC(C)C)C(=O)N(C)[C@@H](C(C)C)C(=O)N1C ; output its category
Solution: hi

Problem: Input C/C=C/C[C@@H](C)[C@@H](O)[C@H]1C(=O)N[C@@H](CC)C(=O)N(C)[C@H](SCCn2ccnc2)C(=O)N(C)[C@@H](CC(C)C)C(=O)N[C@@H](C(C)C)C(=O)N(C)[C@@H](CC(C)C)C(=O)N[C@@H](C)C(=O)N[C@H](C)C(=O)N(C)[C@@H](CC(C)C)C(=O)N(C)[C@@H](CC(C)C)C(=O)N(C)[C@@H](C(C)C)C(=O)N1C ; output its category
Solution: med

* * *

I'd be grateful if you could share measured IC50 for these entries.
# STUDY TARGET: Human immunodeficiency virus type 1 reverse transcriptase (Human immunodeficiency virus 1)
# ASSAY COMMENT: In vitro inhibitory activity against HIV-1 RT in CEM4 cell line
The reply should contain only the number, in µM.

Problem: Complete the entry with IC50 for C/C=C/C[C@@H](C)[C@@H](O)[C@H]1C(=O)N[C@@H](CC)C(=O)N(C)[C@H](SCCN2CCCCC2)C(=O)N(C)[C@@H](CC(C)(C)O)C(=O)N[C@@H](C(C)C)C(=O)N(C)[C@@H](CC(C)C)C(=O)N[C@@H](C)C(=O)N[C@H](C)C(=O)N(C)[C@@H](CC(C)C)C(=O)N(C)[C@@H](CC(C)C)C(=O)N(C)[C@@H](C(C)C)C(=O)N1C
Solution: 0.0195

Problem: Complete the entry with IC50 for C/C=C/C[C@@H](C)[C@@H](O)[C@H]1C(=O)N[C@@H](CC)C(=O)N(C)[C@H](SCCN(C)C)C(=O)N(C)[C@@H](CC(C)C)C(=O)N[C@@H](C(C)C)C(=O)N(C)[C@@H](CC(C)C)C(=O)N[C@@H](C)C(=O)N[C@H](C)C(=O)N(C)[C@@H](CC(C)C)C(=O)N(C)[C@@H](CC(C)C)C(=O)N(C)[C@@H](C(C)C)C(=O)N1C
Solution: 0.035

Problem: Complete the entry with IC50 for C/C=C/C[C@@H](C)[C@@H](O)[C@H]1C(=O)N[C@@H](CC)C(=O)N(C)[C@H](SCCN(C)C(C)(C)C)C(=O)N(C)[C@@H](CC(C)C)C(=O)N[C@@H](C(C)C)C(=O)N(C)[C@@H](CC(C)C)C(=O)N[C@@H](C)C(=O)N[C@H](C)C(=O)N(C)[C@@H](CC(C)C)C(=O)N(C)[C@@H](CC(C)C)C(=O)N(C)[C@@H](C(C)C)C(=O)N1C
Solution: 0.024

Problem: Complete the entry with IC50 for C/C=C/C[C@@H](C)[C@@H](O)C1C(=O)N[C@@H](CC)C(=O)N(C)[C@H](CO)C(=O)N(C)[C@@H](CC(C)(C)O)C(=O)N[C@@H](C(C)C)C(=O)N(C)[C@@H](CC(C)C)C(=O)N[C@@H](C)C(=O)N[C@H](C)C(=O)N(C)[C@@H](CC(C)C)C(=O)N(C)[C@@H](CC(C)C)C(=O)N(C)[C@@H](C(C)C)C(=O)N1C (stereo partly specified)
Solution: 0.095

Problem: Complete the entry with IC50 for C/C=C/C[C@@H](C)[C@@H](O)[C@H]1C(=O)N[C@@H](CC)C(=O)N(C)[C@H](SCCN(CC)CC)C(=O)N(C)[C@@H](CC(C)(C)O)C(=O)N[C@@H](C(C)C)C(=O)N(C)[C@@H](CC(C)C)C(=O)N[C@@H](C)C(=O)N[C@H](C)C(=O)N(C)[C@@H](CC(C)C)C(=O)N(C)[C@@H](CC(C)C)C(=O)N(C)[C@@H](C(C)C)C(=O)N1C
Solution: 0.047

Problem: Complete the entry with IC50 for C/C=C/C[C@@H](C)[C@@H](O)[C@H]1C(=O)N[C@@H](CC)C(=O)N(C)[C@H](SCCN(CC)CC)C(=O)N(C)[C@@H](CC(C)C)C(=O)N[C@@H](C(C)C)C(=O)N(C)[C@@H](CC(C)C)C(=O)N[C@@H](C)C(=O)N[C@H](C)C(=O)N(C)[C@@H](CC(C)C)C(=O)N(C)[C@@H](CC(C)C)C(=O)N(C)[C@@H](C(C)C)C(=O)N1C
Solution: 0.0025
